Items are presented alongside their recorded EC50.
# assayed-system: T1, human CD24 (human, UniProt P25063 27-59, heavily glycosylated, GPI-anchored (as described in the background))
# T1 construct: whole, on cells; Target of all cell-based FACS assays; also called hCD24; Cluster of differentiation 24
# T1 chain (looked up): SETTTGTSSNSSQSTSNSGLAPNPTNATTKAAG
# experimental-protocol: FACS, 5637 cells
Please respond with the number in nM and leave the unit unwritten.

ch81A1F8-hIgG4 (antibody, V domains shown, chimeric; also called chAb81A1F8; ch81A1F8-IgG4) VH: EVQLQQSGPELVKPGASVKISCKATGYLFTGYYMNWVKQSPEKSLEWIGEINPNTGDTNNNQKFKAKATMTVDRSSSTAYMQLKRLTSEDSAVYYCVRRDYGTSLDYWGQGTTLTVSS VL: DVQITQSPSYLAASPGETITINCRASKSINKYLAWYQEKPGKTNKLLIHSGSTLQSGIPSRFSGSRSGTDFTLTISNLEPEDFAMYYCQQHNEYPITFGAGTKLELK = 2.47
110D4G4 (antibody, V domains shown, mouse monoclonal antibody; also called mAb-110D4G4) VH: EVQLQQSGPGLVKPGASVKISCRASGYLFTGYYMNWVKQSPEKSLEWIGEINPNTGDPRYDQKFKAKATLTVDRSSSTAYMHLKSLTSEDSAVYFCARRDYGTSLDYWGQGTTLTVTS VL: DVQITQSPSYLAASPGETITINCRASKSISKYLAWYQEKPGKTNKLLIYSGSTLQSGIPSRFSGSGSGSDFTLTISSLEPEDFAMYYCQQHNEYPLTFGAGTKLELK = 5.89
56A7E3 (antibody, V domains shown, mouse monoclonal antibody) VH: EVQLQQSGPELVKPGASVKIPCKASGYTFTAYNMDWVKQSHGMSLEWIGDINPINGGTIYNQNFEGKATLTVDKSSSTAYLELRSLTSEDTAVYYCARRGSYYYGSSHYALDFWGQGTSVSVSS VL: DIQMTQITSSLSASLGDRVTITCRASQDISNYLNWYQQKPDGTVKLLIYYTSRLLSGVPSRFSGSGSGTDYSLTISNLEQEDIATYFCQQDHTLPRTFGGGTKLEIR = 31.6

Next binder, EC50 to be filled in.
Please fill in: EC50 reported for 100F2E3 (antibody, V domains shown, mouse monoclonal antibody) VH: QVQLQQPGAELVRPGSSVKLSCKTSDYTFTSYWMDWVKQRPGQGLEWIGNIYPSDSKTHSNQKFRDKATLTVDKSSSTAYMQLNSLTSEDSAVYYCARRGGYYGYAMDYWGQGTSVTVSS VL: DIVMTQSPSSLSVSAGEKVTMSCKSSQSLLNSGNQDNYLAWYQQKPGQPPKLLIYGASIRESGVPDRFTGSGSGTDFTLTISSVQAEDLAVYYCQNDHSYPYTFGGGTKLEIK = 9.47
